Test system: CCRF-CEM leukemia
Assay: NCI tumour cell line growth inhibition, 48 h
// TGI lookup, one value per entry

{"Compound": "O=C1Nc2ccc(C(=O)c3ccco3)cc2/C1=C/c1cc(Cl)c(O)c(Cl)c1", "Measurement target": "CCRF-CEM leukemia", "TGI": "> 25 µM"}

Here's the next entry for you.
Field request: TGI | item: COc1cc(Nc2nccc(Nc3ccc4c(C)[nH]nc4c3)n2)cc(OC)c1OC > 25 µM

###

Tested on: SNB-75 CNS
Assay: NCI tumour cell line growth inhibition, 48 h
Attribute measured: TGI

{"Compound": "O=C(O)c1ccc(P(=O)(O)c2ccc(C(=O)O)cc2Br)c(Br)c1", "Result": "> 100 µM"}
{"Compound": "CCOC(=O)C(Cc1c[nH]c2ccc(N)cc12)(NC(C)=O)C(=O)OCC", "Result": "> 1000 µM"}
{"Compound": "COc1ccc(CN(C)c2ccc(CO)c(Cl)c2)cc1", "Result": "> 90.7 µM"}
{"Compound": "O=C1NC(=O)C(Cc2ccccc2)(c2cccnc2)N1 (stereo unspecified)", "Result": "> 100 µM"}
{"Compound": "O=C(Nc1ccc(Cl)cc1)C(=O)C(C(=O)c1ccccc1-c1ccccc1)C1OC(=O)c2ccccc21 (stereo unspecified)", "Result": "93.3 µM"}

Consider the additional compound presented here.
Given the compound CN[C@@H](C)C(=O)N[C@H](C(=O)N1CCC[C@H]1C(=O)N[C@H]1c2ccccc2C[C@H]1OCC#CC#CCO[C@@H]1Cc2ccccc2[C@@H]1NC(=O)[C@@H]1CCCN1C(=O)[C@@H](NC(=O)[C@H](C)NC)C1CCCCC1)C1CCCCC1 , what is its reported TGI? 1.16 µM
